Reference source for all entries: patent US5959130A

Examples of compounds with documented Viscosity reading of dispersion follow.
- ASSAY_INFO: viscosity readings of titanium dioxide dispersions, Table VI B
- Assay type: physicochemical
- SETUP_CONDITIONS: Brookfield LVT-D @ 12 RPM, TiO2 50%, pass 4

- COMPOUND: "CCCCCCC(CC=CCCCCCCCC(=O)OCC(COC(=O)CCCCCCCC=CCC(CCCCCC)OC(=O)c1ccccc1)OC(=O)CCCCCCCC=CCC(CCCCCC)OC(=O)c1ccccc1)OC(=O)c1ccccc1 (stereo not shown) [BCO]"
  Viscosity reading of dispersion: "7332 cps"
- COMPOUND: "CCCCCCC(CCCCCCCCCCC(=O)OCC(CC)CCCC)OC(=O)c1ccccc1 (stereo not shown) [BOHS]"
  Viscosity reading of dispersion: "1326 cps"
- COMPOUND: "CCCCCCCCCCCCCCCCOC(=O)CCCCCCCC=CCC(CCCCCC)OC(=O)c1ccccc1 (stereo not shown) [BCR, benzoic acid ester of cetyl-ricinoleate]"
  Viscosity reading of dispersion: "2028 cps"

---

- ASSAY_INFO: viscosity readings of titanium dioxide dispersions, Table VI B
- Assay type: physicochemical
- SETUP_CONDITIONS: Brookfield LVT-D @ 12 RPM, TiO2 50%, pass 2

- MOLECULE: "CCCCCCC(CCCCCCCCCCC(=O)OCC(CC)CCCC)OC(=O)c1ccccc1 (stereo not shown) [BOHS]"
  READING_UNIT: "cps"
  Viscosity reading of dispersion: 1170
- MOLECULE: "CCCCCCCCCCCCCCCCOC(=O)CCCCCCCC=CCC(CCCCCC)OC(=O)c1ccccc1 (stereo not shown) [BCR, benzoic acid ester of cetyl-ricinoleate]"
  READING_UNIT: "cps"
  Viscosity reading of dispersion: 1872
- MOLECULE: "CCCCCCC(CC=CCCCCCCCC(=O)OCC(COC(=O)CCCCCCCC=CCC(CCCCCC)OC(=O)c1ccccc1)OC(=O)CCCCCCCC=CCC(CCCCCC)OC(=O)c1ccccc1)OC(=O)c1ccccc1 (stereo not shown) [BCO]"
  READING_UNIT: "cps"
  Viscosity reading of dispersion: 7176

---

This section presents molecules with their documented Hagman reading (particle size) values.
- ASSAY_INFO: Hagman readings (particle size), titanium dioxide dispersion, Table VI A
- Format: physicochemical
- SETUP_CONDITIONS: TiO2 50%, pass 3

- MOLECULE: "CCCCCCC(CCCCCCCCCCC(=O)OCC(CC)CCCC)OC(=O)c1ccccc1 (stereo not shown)"
  Hagman reading (particle size): "≤ 14 μm"
- MOLECULE: "CCCCCCC(CC=CCCCCCCCC(=O)OCC(COC(=O)CCCCCCCC=CCC(CCCCCC)OC(=O)c1ccccc1)OC(=O)CCCCCCCC=CCC(CCCCCC)OC(=O)c1ccccc1)OC(=O)c1ccccc1 (stereo not shown)"
  Hagman reading (particle size): "≤ 20 μm"
- MOLECULE: "CCCCCCCCCCCCCCCCOC(=O)CCCCCCC/C=C\\C[C@H](O)CCCCCC [CR, Cetyl Ricinoleate, reference compound]"
  Hagman reading (particle size): "≤ 80 μm"
- MOLECULE: "CCCCCCCCCCCCCCCCOC(=O)CCCCCCCC=CCC(CCCCCC)OC(=O)c1ccccc1 (stereo not shown) [BCR, benzoic acid ester of cetyl-ricinoleate]"
  Hagman reading (particle size): "≤ 21 μm"

---

- ASSAY_INFO: Hagman readings (particle size), titanium dioxide dispersion, Table VI A
- Type: physicochemical
- SETUP_CONDITIONS: TiO2 50%, pass 1
Here, each record is paired with measured Hagman reading (particle size) data.

- MOLECULE: "CCCCCCC(CCCCCCCCCCC(=O)OCC(CC)CCCC)OC(=O)c1ccccc1 (stereo not shown) [BOHS]"
  Hagman reading (particle size): "≤ 20 μm"
- MOLECULE: "CCCCCCC(CC=CCCCCCCCC(=O)OCC(COC(=O)CCCCCCCC=CCC(CCCCCC)OC(=O)c1ccccc1)OC(=O)CCCCCCCC=CCC(CCCCCC)OC(=O)c1ccccc1)OC(=O)c1ccccc1 (stereo not shown) [BCO]"
  Hagman reading (particle size): "≤ 30 μm"
- MOLECULE: "CCCCCCCCCCCCCCCCOC(=O)CCCCCCC/C=C\\C[C@H](O)CCCCCC [CR, Cetyl Ricinoleate, reference compound]"
  Hagman reading (particle size): "≤ 93 μm"
- MOLECULE: "CCCCCCCCCCCCCCCCOC(=O)CCCCCCCC=CCC(CCCCCC)OC(=O)c1ccccc1 (stereo not shown) [BCR, benzoic acid ester of cetyl-ricinoleate]"
  Hagman reading (particle size): "≤ 30 μm"
